- Experiment Summary: chemical genetic growth profiling, strain panel (AID 1159580);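 note: tested at 20 µM; growth read once vehicle control cultures reached saturation at 30 °C; 1 = growth at the plate median or of vehicle wells; lower values mean less growth of the strain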
- Condition Summary: S. cerevisiae deletion strains, growth OD, locus YJL187C, strain SWE1 (second series), active compounds read low
About 2,000 (36%) of roughly 5,500 compounds were called active. About 18% were inconclusive and are not listed. This is one part of the list.
Response field label takes condition met when normalized growth is strictly below 1 and condition not met in all other cases.

1. COc1cc(OC)c2c(c1Cl)OC1(C2=O)C(O)=CC(=O)CC1C (stereo not given) = condition not met
2. CC(C)=CCC1=C(O)c2ccccc2C(=O)C1=O = condition met

Problem: is_below(normalized growth, 1) for `CC(C)=CCOc1cc2oc(=O)ccc2cc1O` ?
Solution: condition met

Problem: Then this compound: `CN1CCN(CCCN2c3ccccc3Sc3ccc(Cl)cc32)CC1`
Solution: condition met

====

- Experiment Summary: chemical genetic growth profiling, strain panel (AID 1159580);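 note: tested at 20 µM; growth read once vehicle control cultures reached saturation at 30 °C; 1 = growth at the plate median or of vehicle wells; lower values mean less growth of the strain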
- Condition Summary: S. cerevisiae deletion strains, growth OD, locus YNL322C, strain KRE1, active compounds read low
Screen size: about 5,500 compounds; about 2,000 (36%) were called active. Inconclusive results (about 18%) are left out. Some of the results follow.
Measured Quantity: normalized growth
// keep it numeric: no unit symbol after the value

Consider the following illustrative entries.
1. CC(=O)CC(C)=Nc1ccc(C(F)(F)F)cc1 = 1
2. CC(=O)/C(=C\N(C)C)Sc1nnc(C(F)(F)F)n1C = 1
3. O=C(NCCNc1ccc(C(F)(F)F)cc1[N+](=O)[O-])c1cccs1 = 0.988
4. COc1cc(O)c(C(=O)c2ccccc2)c(OC)c1 = 0.99

Attention now shifts to the item below.
Problem: Given the entry `N#C/C(=N/Nc1ccc(C(F)(F)F)cc1)C(=O)C1CC1` , report its measured normalized growth.
Solution: 0.981

====

- Experiment Summary: chemical genetic growth profiling, strain panel (AID 1159580);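 note: tested at 20 µM; growth read once vehicle control cultures reached saturation at 30 °C; 1 = growth at the plate median or of vehicle wells; lower values mean less growth of the strain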
- Condition Summary: S. cerevisiae deletion strains, growth OD, locus YDL185W, strain tfp1, active compounds read low
The whole screen tested about 5,500 compounds, of which about 2,000 (36%) were called active. Another 18% or so got no clear call; they are omitted. Some of the results follow.
The following compounds are shown together with reported normalized growth values.
// keep it numeric: no unit symbol after the value

1) COC(=O)C[C@H]1C(C)(C)C(OC(C)=O)[C@]2(O)C=C3C4CC(=O)O[C@@H](c5ccoc5)[C@]4(C)CCC3[C@@]1(C)C2=O (some centres not stated) = 1.02
2) CC1(C)C=Cc2c(cc3occ(-c4ccc5c(c4)OCO5)c(=O)c3c2O)O1 = 1
3) C/C=C(\C)C(=O)OC1[C@@H]2C=C3C4CC(=O)O[C@@H](c5ccoc5)[C@]4(C)CCC3[C@@](C)(C2=O)[C@@H](C(O)C(=O)OC)C1(C)C (some centres not stated) = 1.02
4) O=C(CCCN1CC=C(n2c(=O)[nH]c3ccccc32)CC1)c1ccc(F)cc1 = 0.991
5) CCOC(=O)C1=C(C)NC(C)=C(C(=O)OC)C1c1cccc([N+](=O)[O-])c1 (configuration not stated) = 0.996

Problem: Given the entry `COc1c(O)cc(O)cc1O` , report its measured normalized growth.
Solution: 0.978

Problem: Then this compound: `COc1cc(O)c(C(=O)c2ccccc2)c(OC)c1`
Solution: 0.989

Problem: Then this compound: CC(C(=O)O)c1ccc(N2Cc3ccccc3C2=O)cc1 (configuration not stated)
Solution: 0.989

Problem: Then this compound: `Cc1c(N(C)CS(=O)(=O)O)c(=O)n(-c2ccccc2)n1C`
Solution: 0.992

Problem: Then this compound: C[N+]1(C)C2CC[C@H]1CC(OC(=O)C(O)c1ccccc1)C2 (some centres not stated)
Solution: 1.01

Problem: Then this compound: CC(C)(O)CC[C@@H](O)[C@](C)(O)C1CC[C@@]2(O)C3=CC(=O)C4C[C@@H](O)[C@@H](O)C[C@]4(C)C3CC[C@]12C (some centres not stated)
Solution: 0.999
